Here, compounds appear alongside Ki reported for Prostaglandin E2 receptor EP2 subtype (Homo sapiens) in the literature.
The threshold is 100 nM. Values of Ki beneath it are tagged met; values meeting or exceeding it are tagged not met.

Challenge: A record lists O=C(O)c1ccc(CCC[C@@H]2[C@@H](CCCCCCCO)[C@H](O)C[C@H]2Cl)s1 . Is its Ki below 100 nM?
Response given: met

Challenge: A record lists CCCCCC(O)c1ccc(C2=C(C#N)CC[C@@H]2CCCc2ccc(C(=O)O)s2)cc1 (some centres unmarked) . Is its Ki below 100 nM?
Response given: not met

Challenge: A record lists O=C(O)c1ccc(CNC(=O)c2cc(-c3ccc(Cl)cc3)ccc2Oc2ccc(F)cc2)cc1 . Is its Ki below 100 nM?
Response given: not met

Challenge: A record lists COc1cc(CC2=CCc3cccc(/C=C/c4ccc(C(=O)O)cc4)c32)cc(OC)c1 . Is its Ki below 100 nM?
Response given: not met

Challenge: A record lists O=C(O)c1ccc(CCC[C@@H]2[C@@H](CCCCCCCCO)[C@H](O)C[C@H]2Cl)s1 . Is its Ki below 100 nM?
Response given: met

Challenge: A record lists CCCCCC(F)c1ccc(N2C(=O)CC[C@@H]2COCc2csc(C(=O)O)c2)cc1 (some centres unmarked) . Is its Ki below 100 nM?
Response given: not met

Challenge: A record lists CCc1cccc(CCC[C@@H]2[C@@H](CCCc3ccc(C(=O)O)s3)[C@H](Cl)C[C@H]2O)c1 . Is its Ki below 100 nM?
Response given: met

Challenge: A record lists O=C(O)c1ccc(CCC[C@@H]2[C@@H](/C=C/C3CCCC3)[C@H](O)C[C@H]2Cl)s1 . Is its Ki below 100 nM?
Response given: met

Challenge: A record lists CN(Cc1ccccc1)C[C@@H]1[C@@H](CCCc2ccc(C(=O)O)s2)[C@H](Cl)C[C@H]1O . Is its Ki below 100 nM?
Response given: met
